Data credit: a collection of fitness landscapes (doi:10.1016/j.celrep.2020.107928)

Recorded measurements of one-hybrid fitness for binding NBS DNA, one per entry
B1: Caulobacter ParB omega fusion; a variant is named by its letters at X, in order, B8GW30 (parent)
chain: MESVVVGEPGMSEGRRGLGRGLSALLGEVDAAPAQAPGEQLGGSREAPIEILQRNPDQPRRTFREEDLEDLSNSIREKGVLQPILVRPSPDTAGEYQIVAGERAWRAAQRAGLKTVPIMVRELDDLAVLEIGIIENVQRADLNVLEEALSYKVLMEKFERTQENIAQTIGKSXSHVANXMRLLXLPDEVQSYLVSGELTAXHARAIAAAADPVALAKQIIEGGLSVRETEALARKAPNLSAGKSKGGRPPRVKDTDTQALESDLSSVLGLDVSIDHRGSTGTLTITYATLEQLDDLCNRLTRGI

variants of: B1; assay: one-hybrid fitness for binding NBS DNA (the Noc-binding site; scaled: cognate 1, non-cognate 0); higher = stronger binding; conditions: with NBS DNA site
Whole data set: some 81,000 sequences, median “one-hybrid fitness for binding NBS DNA” near -0.1, cut for the highest 2% near 0.36. For the sample, the highest values were picked, then their nearest neighbours and some sequences at random.
# print the numeric value only

Worked examples follow.
{"columns": ["MUTATIONS", "one-hybrid fitness for binding NBS DNA"],
 "data": [
  ["NTRR", 0.235],
  ["KKYT", 0.249],
  ["KKAT", 0.309]
]}

Entry `QIVT` — recorded one-hybrid fitness for binding NBS DNA = 0.236

The recorded one-hybrid fitness for binding NBS DNA for entry `QAVT` equals 0.296

Measured one-hybrid fitness for binding NBS DNA of `QCRL` : 0.401

Per the records, this variant ( `QTRL` ) has one-hybrid fitness for binding NBS DNA equal to 0.406

For record `DCRL` the listed one-hybrid fitness for binding NBS DNA is 0.405

// sample `RCTR` , its one-hybrid fitness for binding NBS DNA was 0.534

one-hybrid fitness for binding NBS DNA measured on `QLKT` = 0.673

Lab note: `QWKT` gave one-hybrid fitness for binding NBS DNA of 0.25

// recorded one-hybrid fitness for binding NBS DNA for `KKNT` : 0.425

Entry under test: `QTNK` . Its one-hybrid fitness for binding NBS DNA was 0.304

Measured one-hybrid fitness for binding NBS DNA, `QRQD` : 0.228
